Biological target: BRD4(49-170) bromodomain (Homo sapiens (Human))
Assay: BRD4 AlphaScreen Assay
Conditions: binding to biotin-H4(1-21) Ac-K5/8/12/16
pIC50: −log10 of the molar value.
Classes by pIC50: low: < 5; middle: ≥ 5 and < 6; high: ≥ 6

These recorded examples may help you get a feel for the data.
// query Bin? CC1C(=O)N(C)Cc2c(-c3c(F)ccc4nc(-c5cnn(C)c5)c(C(F)(F)F)cc34)nc(C3CCOCC3)n21 (centres unmarked) [Example 35]
// result low

// query Bin? CC1C(=O)N(C)Cc2c(-c3cc4c(-c5cnn(C)c5)nn(C)c4cc3F)nc(C3=CCOCC3)n21 (centres unmarked) [Example 42]
// result middle

// query Bin? CC1C(=O)N(C)Cc2c(-c3c(F)ccc4nc(-c5cnn(C)c5)c(C(F)F)cc34)nc(C3CCOCC3)n21 (single isomer, unassigned) [Example 36b]
// result low

// query Bin? Cc1ncc(-c2nc3cccc(-c4nc(C5CC5)n5c4CN(C)C(=O)C5C)c3cc2C(F)F)s1 (centres unmarked) [Example 68]
// result high

// query Bin? C[C@H]1C(=O)N(C)Cc2c(-c3cccc4nc(-c5cnn(C)c5)c(C(F)F)cc34)nc(C3CCOCC3)n21 [Example 5b]
// result low

---
// query Bin? CCN1Cc2c(N3CCCc4cc(-c5cnn(C)c5)c(C(F)F)cc43)nc(C3CC3)n2CC1=O [Example 48]
// result low

// query Bin? CC1C(=O)N(C)Cc2c(-c3cccc4nc(-c5cnn(C)c5)c(C(F)F)cc34)nc(C3(C)CCOCC3)n21 (single isomer, unassigned) [Example 32a]
// result low

// query Bin? Cc1cn(-c2cc3cccc(-c4nc(C5CC5)n5c4CN(C)C(=O)C5C)c3cn2)nc1C (centres unmarked) [Example 72]
// result high

// query Bin? Cc1ncc(-c2cc3ccc(F)c(-c4nc(C5CCOCC5)n5c4CN(C)C(=O)C5C)c3cn2)s1 (single isomer, unassigned) [Example 37a]
// result high

// query Bin? CCN1Cc2c(N3CCCc4cc(-c5cnn(C)c5)c(C(F)F)cc43)nc(C3CC3)n2CC1=O [Example 4]
// result low

// query Bin? CC1C(=O)N(C)Cc2c(-c3ccc4cncn4c3)nc(C3CC3)n21 (centres unmarked) [Example 54]
// result middle

###

Target: BRD4(49-170) bromodomain (Homo sapiens (Human), UniProt O60885)
Assay: BRD4 AlphaScreen Assay
Conditions: binding to biotin-H4(1-21) Ac-K5/8/12/16
For each entry below, report its IC50 value.
One number for each entry, in µM.

Please supply IC50 for each of the following items, keeping them in order.
1. CC1C(=O)N(C)Cc2c(-c3cccc4cc(-c5ncco5)ncc34)nc(C3CC3)n21 (centres unmarked) [Example 66]
2. CC1C(=O)N(C)Cc2c(-c3ccc4ccncc4c3)nc(C3CC3)n21 (centres unmarked) [Example 53]
3. CC1C(=O)N(C)Cc2c(-c3c(F)ccc4cc(-c5ccn(C)n5)ncc34)nc(C3CCOCC3)n21 (single isomer, unassigned) [Example 90a]
4. CC1C(=O)N(C)Cc2c(-c3cccc4cc(N5CCOCC5)ncc34)nc(C3CCOCC3)n21 (single isomer, unassigned) [Example 16b]
5. COCCN1CC(c2nc(-c3cccc4nc(-c5cnn(C)c5)c(C(F)F)cc34)c3n2C(C)C(=O)N(C)C3)C1 (centres unmarked) [Example 23]
6. CC1C(=O)N(C)Cc2c(-c3cccc4nc(-c5nsc(=O)[nH]5)c(C(F)F)cc34)nc(C3CC3)n21 (centres unmarked) [Example 46]

// result
1: 1.59; 2: 2.96; 3: 25; 4: 0.353; 5: 24.6; 6: 0.341

###

For each entry below, report its log10 IC50 value.
Target: BRD4(49-170) bromodomain (Homo sapiens (Human), UniProt O60885)
Assay: BRD4 AlphaScreen Assay
Conditions: binding to biotin-H4(1-21) Ac-K5/8/12/16
Description: Specific binding of the CBP or BRD4 bromodomain to the acetylated peptide derived from the H4 histone substrate (tetra acetylated H4(1-21) Ac-K5/8/12/16) was measured in absence or presence of inhibitors. The GST tagged bromodomains of CBP (1081-1197) and BRD4 (49-170) were obtained from BPS Bioscience and binding to the biotinylated H4(1-21) Ac-K5/8/12/16 (AnaSpec. 64989) was assessed via AlphaScreen technology (Perkin Elmer). […]
Record value = log10 of IC50 given in nM.

Known log10 IC50 results, listed for orientation:
// query Sample CC1C(=O)N(C)Cc2c(-c3cccc4cc(-c5ccn(C)n5)ncc34)nc(C3CC3)n21 (centres unmarked) [Example 62] — what was its log10 IC50?
// result 2.21

// query Sample COCCN1CCC(c2nc(-c3cccc4nc(-c5cnn(C)c5)c(C(F)F)cc34)c3n2C(C)C(=O)N(C)C3)CC1 (centres unmarked) [Example 82] — what was its log10 IC50?
// result 4.09

// query Sample CC1C(=O)N(C)Cc2c(-c3cccc4nc(-c5cnn(C)c5)c(C(F)F)cc34)nc(C3CNC3)n21 (centres unmarked) [Example 18] — what was its log10 IC50?
// result 4.24

// query Sample CC1C(=O)N(C)Cc2c(-c3ccc4sccc4c3)nc(C3CC3)n21 (centres unmarked) [Example 52] — what was its log10 IC50?
// result 2.69

// query Sample Cc1nn(C)cc1-c1cc2cccc(-c3nc(C4CCOCC4)n4c3CN(C)C(=O)C4)c2cn1 [Example 96] — what was its log10 IC50?
// result 4.10

// query Sample C[C@H]1C(=O)N(C)Cc2c(-c3cccc4nc(-c5ccn(C)n5)c(C(F)F)cc34)nc(C3CCOCC3)n21 [Example 89b] — what was its log10 IC50?
// result 4.32

// query Sample CN1Cc2c(N3CCCc4cc(-c5cnn(C)c5)c(C(F)F)cc43)nc(C3CC3)n2CC1=O [Example 1] — what was its log10 IC50?
// result 3.94

// query Sample CNC(=O)N1CCC(c2nc(-c3cccc4nc(-c5cnn(C)c5)c(C(F)F)cc34)c3n2C(C)C(=O)N(C)C3)CC1 (centres unmarked) [Example 79] — what was its log10 IC50?
// result 3.39

// query Sample CC1C(=O)N(C)Cc2c(-c3cccc4nc(-c5cnn(C)c5)c(C(F)F)cc34)nc(C3(C)CCOCC3)n21 (single isomer, unassigned) [Example 32b] — what was its log10 IC50?
// result 2.55

// query Sample CC1C(=O)N(C)Cc2c(-c3c(F)ccc4nc(-c5cnn(C)c5)c(C(F)F)cc34)nc(C3CCOCC3)n21 (single isomer, unassigned) [Example 36a] — what was its log10 IC50?
// result 2.80

Please supply log10 IC50 for each of the following items, keeping them in order.
1. C[C@@H]1CN(C)C(=O)c2c(-c3cccc4nc(-c5cnn(C)c5)c(C(F)F)cc34)nc(C3CCOCC3)n21 [Example 5a]
2. CC1C(=O)N(C)Cc2c(-c3cccc4cc(-c5cnn(C)c5)ncc34)nc(C3CCOCC3)n21 (centres unmarked) [Example 109]

// result
[2.55, 2.53]

###

For each entry below, report its pIC50 value.
Molecular target: BRD4(49-170) bromodomain (Homo sapiens (Human), UniProt O60885)
Assay: BRD4 AlphaScreen Assay
Conditions: binding to biotin-H4(1-21) Ac-K5/8/12/16
Answers are plain numbers, as −log10 of the molar value.

// query Sample Cc1ncn(-c2cc3cccc(-c4nc(C5CC5)n5c4CN(C)C(=O)C5C)c3cn2)n1 (stereo not shown) — what was its pIC50?
// result 6.06

// query Sample CC1C(=O)N(C)Cc2c(-c3cccc4nc(-c5cnn(C)c5)c(C(F)F)cc34)nc(C3CCN(CCO)CC3)n21 (stereo not shown) — what was its pIC50?
// result 4.93

// query Sample CC1C(=O)N(C)Cc2c(-c3cccc4nc(-c5cnn(C)c5)c(C(F)F)cc34)nc(C3CN(CC(F)(F)F)C3)n21 (stereo not shown) — what was its pIC50?
// result 5.21

Please supply pIC50 for each of the following items, keeping them in order.
1. CC1C(=O)N(C)Cc2c(-c3cccc4nc(-c5cnn(C)c5)c(C(F)F)cc34)nc(C3CCN(CCF)CC3)n21 (stereo not shown)
2. Cc1ncc(-c2cc3ccc(C)c(-c4nc(C5CCOCC5)n5c4CN(C)C(=O)C5C)c3cn2)s1 (single isomer, unassigned) [Example 38a]
3. Cc1ccc2cc(-c3ccn(C)n3)ncc2c1-c1nc(C2CCOCC2)n2c1CN(C)C(=O)C2C (stereo not shown)
4. Cc1ncc(-c2cc3cccc(-c4nc(C5CCOCC5)n5c4CN(C)C(=O)C5C)c3cn2)s1 (single isomer, unassigned) [Example 31a]
5. Cc1ncc(-c2cc3ccc(C)c(-c4nc(C5CCOCC5)n5c4CN(C)C(=O)C5C)c3cn2)s1 (single isomer, unassigned) [Example 38b]
6. CCC1C(=O)N(C)Cc2c(-c3cccc4nc(-c5cnn(C)c5)c(C(F)F)cc34)nc(C3CCOCC3)n21 (single isomer, unassigned) [Example 64a]

// result
5.02
5.74
5.46
5.57
5.31
4.60

Please supply pIC50 for each of the following items, keeping them in order.
1. CC1C(=O)N(C)Cc2c(-c3cccc4cc(C5CCOCC5)ncc34)nc(C3CCOCC3)n21 (single isomer, unassigned) [Example 15b]
2. Cc1cn(-c2nc3cccc(-c4nc(C5CC5)n5c4CN(C)C(=O)C5C)c3cc2C(F)F)cn1 (stereo not shown)

// result
1. 6.71
2. 6.57
